# PROTOCOL TEXT: Pharmacokinetics of four lignans in rats after oral SC alcoholic extract
# Type: in vivo, rat
# ASSAY CONDITIONS: Sprague-Dawley, rat, plasma, po, 1.5 g/kg/day, Control (normal) rats, oral SC alcoholic extract 1.5 g/kg/day for 4 days, n = 5
Assignment: determine reported AUC(0-t) for the given molecules.
One number for each entry, in ng·h/mL.

// known answers, use as guide
| ENTRY SMILES | READOUT NUMBER |
| --- | --- |
| COc1cc2c(c(OC)c1OC)-c1c(cc3c(c1OC)OCO3)C[C@H](C)[C@H](C)C2 | 5220 |
| COc1cc2c(c(OC)c1OC)-c1c(cc(OC)c(OC)c1OC)C[C@](C)(O)[C@@H](C)C2 | 19800 |

AUC(0-t) reading for COc1cc2c(c(OC)c1OC)-c1c(cc(OC)c(OC)c1OC)C[C@H](C)[C@@H](C)C2 : 7880

----------
# PROTOCOL TEXT: Pharmacokinetics of four lignans in rats after oral SC alcoholic extract
# Assay type: in vivo, rat
# ASSAY CONDITIONS: Sprague-Dawley, rat, plasma, po, 1.5 g/kg/day, CCl4-intoxicated rats, oral SC alcoholic extract 1.5 g/kg/day for 4 days, plasma, n = 5; read-out: MRT(0−t)
Assignment: determine reported MRT last for the given molecules.
Give bare numbers, in h.

Answered examples (2):
| ENTRY SMILES | READOUT NUMBER |
| --- | --- |
| COc1cc2c(c(OC)c1OC)-c1c(cc(OC)c(OC)c1OC)C[C@](C)(O)[C@@H](C)C2 | 12.8 |
| COc1cc2c(c(OC)c1OC)-c1c(cc(OC)c(OC)c1OC)C[C@H](C)[C@@H](C)C2 | 16.4 |

For record COc1cc2c(c(OC)c1OC)-c1c(cc3c(c1OC)OCO3)C[C@H](C)[C@H](C)C2 the listed MRT last is 15.9

----------
# PROTOCOL TEXT: Pharmacokinetics of four lignans in rats after oral SC alcoholic extract
# Type: in vivo, rat
# ASSAY CONDITIONS: Sprague-Dawley, rat, plasma, po, 1.5 g/kg/day, CCl4-intoxicated rats, oral SC alcoholic extract 1.5 g/kg/day for 4 days, n = 5
QUANTITY KIND: Cmax (µg/mL)
Answers are plain numbers, in µg/mL.

Field: example entries. Status: answers known.
| ENTRY SMILES | Cmax [µg/mL] |
| --- | --- |
| COc1cc2c(c(OC)c1OC)-c1c(cc(OC)c(OC)c1OC)C[C@H](C)[C@@H](C)C2 | 0.775 |
| COc1cc2c(c(OC)c1OC)-c1c(cc(OC)c(OC)c1OC)C[C@](C)(O)[C@@H](C)C2 | 3.98 |

Lab note: COc1cc2c(c(OC)c1OC)-c1c(cc3c(c1OC)OCO3)C[C@H](C)[C@H](C)C2 gave Cmax of 0.628

----------
# PROTOCOL TEXT: Pharmacokinetics of four lignans in rats after oral SC alcoholic extract
# Format: in vivo, rat
# ASSAY CONDITIONS: Sprague-Dawley, rat, plasma, po, 1.5 g/kg/day, Control (normal) rats, oral SC alcoholic extract 1.5 g/kg/day for 4 days, n = 5
Hi there, I'd appreciate the recorded Cmax for every entry that follows.
Answers are plain numbers, in ng/mL.

| ENTRY SMILES | Cmax (ng/mL) |
| --- | --- |
| COc1cc2c(c(OC)c1OC)-c1c(cc(OC)c(OC)c1OC)C[C@](C)(O)[C@@H](C)C2 | 1370 |
| COc1cc2c(c(OC)c1OC)-c1c(cc(OC)c(OC)c1OC)C[C@H](C)[C@@H](C)C2 | 564 |

Kindly review the next molecule as well.
Lab book: Cmax of COc1cc2c(c(OC)c1OC)-c1c(cc3c(c1OC)OCO3)C[C@H](C)[C@H](C)C2 noted as 182

----------
# PROTOCOL TEXT: Transport across Caco-2 cell monolayer
# Type: in vitro ADME
# ASSAY CONDITIONS: human, Caco-2; 10 μM
QUANTITY KIND: Papp A→B at 2 h, 10 μM (×10⁻⁶ cm/s)
Numbers only, in ×10⁻⁶ cm/s.

Some entries whose results are on file:
| ENTRY SMILES | Papp A→B at 2 h, 10 μM (×10⁻⁶ cm/s) |
| --- | --- |
| COc1cc2c(c(OC)c1OC)-c1c(cc(OC)c(OC)c1OC)C[C@H](C)[C@@H](C)C2 | 1.16 |
| COc1cc2c(c(OC)c1OC)-c1c(cc(OC)c(OC)c1OC)C[C@](C)(O)[C@@H](C)C2 | 1.86 |

Let's switch to this compound now.
get_value(item= COc1cc2c(c(OC)c1OC)-c1c(cc3c(c1OC)OCO3)C[C@H](C)[C@H](C)C2 , readout=Papp A→B at 2 h, 10 μM) returns 1.18

----------
# PROTOCOL TEXT: Transport across Caco-2 cell monolayer
# Assay type: in vitro ADME
# ASSAY CONDITIONS: human, Caco-2, with PSC833 (concentration not stated); 5 μM, + PSC833
QUANTITY KIND: Papp B→A at 2 h, 5 μM (×10⁻⁶ cm/s)
One number for each entry, in ×10⁻⁶ cm/s.

The compound identified as C[C@H]1O[C@@H](O[C@H]2[C@@H](O)C[C@H](O[C@H]3[C@@H](O)C[C@H](O[C@H]4CC[C@@]5(C)[C@H](CC[C@@H]6[C@@H]5C[C@@H](O)[C@]5(C)[C@@H](C7=CC(=O)OC7)CC[C@]65O)C4)O[C@@H]3C)O[C@@H]2C)C[C@H](O)[C@@H]1O [Digoxin, digoxin, reference compound] registered its Papp B→A at 2 h, 5 μM at 2.38

----------
# PROTOCOL TEXT: Transport across Caco-2 cell monolayer
# Type: in vitro ADME
# ASSAY CONDITIONS: human, Caco-2; 50 μM
QUANTITY KIND: Papp A→B at 2 h, 50 μM (×10⁻⁶ cm/s)
One number for each entry, in ×10⁻⁶ cm/s.

| ENTRY SMILES | QUANTITY KIND | READOUT NUMBER |
| --- | --- | --- |
| COc1cc2c(c(OC)c1OC)-c1c(cc(OC)c(OC)c1OC)C[C@H](C)[C@@H](C)C2 | Papp A→B at 2 h, 50 μM | 1.24 |
| COc1cc2c(c(OC)c1OC)-c1c(cc(OC)c(OC)c1OC)C[C@](C)(O)[C@@H](C)C2 | Papp A→B at 2 h, 50 μM | 1.93 |

For the next question, use this compound.
Record summary for COc1cc2c(c(OC)c1OC)-c1c(cc3c(c1OC)OCO3)C[C@H](C)[C@H](C)C2 : reported Papp A→B at 2 h, 50 μM = 1.22

----------
# PROTOCOL TEXT: Pharmacokinetics of four lignans in rats after oral SC alcoholic extract
# Type: in vivo, rat
# ASSAY CONDITIONS: Sprague-Dawley, rat, plasma, po, 1.5 g/kg/day, Control (normal) rats, oral SC alcoholic extract 1.5 g/kg/day for 4 days, plasma, n = 5; read-out: MRT(0−t)
Can you tell me MRT last for the items I'm about to list?
Give bare numbers, in h.

| COMPOUND | READOUT NUMBER |
| --- | --- |
| COc1cc2c(c(OC)c1OC)-c1c(cc(OC)c(OC)c1OC)C[C@H](C)[C@@H](C)C2 [Deoxyshisandrin, deoxyshisandrin] | 11.7 |
| COc1cc2c(c(OC)c1OC)-c1c(cc3c(c1OC)OCO3)C[C@H](C)[C@H](C)C2 [γ-Schisandrin, γ-schisandrin] | 16.5 |

Now consider a different compound.
Briefly, MRT last measured for COc1cc2c(c(OC)c1OC)-c1c(cc(OC)c(OC)c1OC)C[C@](C)(O)[C@@H](C)C2 [Schisandrin, schisandrin] : 11.1

----------
Assignment: determine reported AUC at 10 μM for the given molecules.
# PROTOCOL TEXT: In situ hepatic perfusion of four lignans
# Assay type: in vivo, rat
# ASSAY CONDITIONS: Sprague-Dawley, rat, perfusate, pH 7.4, Control rats, perfusate AUC(0−1h), n = 3
Answers are plain numbers, in ng·h/mL.

Field: example entries. Status: answers known.
| MOLECULE | QUANTITY KIND | READOUT NUMBER |
| --- | --- | --- |
| COc1cc2c(c(OC)c1OC)-c1c(cc(OC)c(OC)c1OC)C[C@](C)(O)[C@@H](C)C2 [Schisandrin, schisandrin] | AUC at 10 μM | 3230 |
| COc1cc2c(c(OC)c1OC)-c1c(cc3c(c1OC)OCO3)C[C@H](C)[C@H](C)C2 [γ-Schisandrin, γ-schisandrin] | AUC at 10 μM | 3190 |

Recorded result, COc1cc2c(c(OC)c1OC)-c1c(cc(OC)c(OC)c1OC)C[C@H](C)[C@@H](C)C2 [Deoxyshisandrin, deoxyshisandrin] , AUC at 10 μM: 3090
